Where do the numbers come from? From PubChem BioAssay (NCATS).

test system: CAOV3; assay: Primary qHTS to identify gynecologic anti-cancer compounds using libraries of approved drugs and bioactive compounds (AID 1345084); settings: Gynecologic cancer cell panel viability, ATPlite luminescence, 48 h; series mostly up to 57.5 µM; also: % is scaled to controls: 0 for no effect and ±100 for the full control effect; nearly all actives have a fitted effect of over 55% in size
Records with an inconclusive call do not appear. The source made the active and inactive calls. Calls follow the shape of the dose curve; as a rule, active = well fitted cell-killing curve with a large enough effect; inconclusive = small, poorly fitted or top-dose-only effect, or effect the other way; inactive = flat fitted curve, though single readings scatter.
Each entry below lists one item and its recorded activity change, negative = cytotoxicity value.

| MOLECULE | VALUE KIND | RESULT VALUE |
| --- | --- | --- |
| C/C=C(/C)C(=O)OC1CC(C)(C)CC2C3=CCC4C5(C)CCC(O[C@@H]6O[C@H](C(=O)O)[C@@H](O)[C@H](O)[C@H]6O[C@@H]6O[C@H](CO)[C@H](O)[C@H](O[C@@H]7OC[C@H](O)[C@H](O)[C@H]7O[C@@H]7O[C@H](CO)[C@@H](O)[C@H](O)[C@H]7O)[C@H]6O)C(C)(C)C5CCC4(C)C3(C)C(O)C(O)C12CO (some centres not stated) | activity change, negative = cytotoxicity | -23.4% [at 6.55 µM] (inactive) |

Consider now this further molecule.
Given item C[C@@H]1O[C@@H](O[C@H]2[C@H](OC(=O)[C@]34CCC(C)(C)C[C@H]3C3=CCC5[C@@]6(C)C[C@H](O)[C@H](O[C@@H]7O[C@H](CO)[C@@H](O)[C@H](O)[C@H]7O)[C@](CO)(C(=O)O)C6CC[C@@]5(C)[C@]3(C)C[C@H]4O)OC[C@H](O)[C@@H]2O)[C@H](O)[C@H](O)[C@H]1O[C@@H]1OC[C@@H](O)[C@H](O[C@@H]2OC[C@](O)(CO)[C@H]2O)[C@H]1O (some centres not stated) , the value recorded as its activity change, negative = cytotoxicity is -2.46% [at 6.55 µM] (inactive)
